- TESTED ON: ERRα (Homo sapiens)
- Sequence (P11474 whole entry, species assumed): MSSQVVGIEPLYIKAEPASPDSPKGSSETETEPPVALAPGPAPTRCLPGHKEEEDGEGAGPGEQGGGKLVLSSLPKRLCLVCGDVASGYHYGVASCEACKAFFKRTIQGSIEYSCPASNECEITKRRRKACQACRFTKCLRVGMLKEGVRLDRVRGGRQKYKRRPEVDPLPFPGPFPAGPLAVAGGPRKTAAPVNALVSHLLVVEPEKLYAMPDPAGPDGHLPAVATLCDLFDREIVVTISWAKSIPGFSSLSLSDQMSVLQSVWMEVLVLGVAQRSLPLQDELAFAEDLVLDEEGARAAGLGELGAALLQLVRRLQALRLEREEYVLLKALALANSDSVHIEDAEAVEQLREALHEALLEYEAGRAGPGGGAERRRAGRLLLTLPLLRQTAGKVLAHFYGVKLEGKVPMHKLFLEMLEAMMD
- METHOD SUMMARY: ERRE luciferase reporter assay in HEK293 cells transfected with pcDNA3.1 ERRα
- CONDITION CONTEXT: HEK293 cells transfected with ERRE reporter construct and pcDNA3.1 ERRα; compound for 24 hours; luciferase activity
ENDPOINT: EC50

// fetch EC50 given entry "Nc1ccc(-c2nnc(-c3ccccc3)o2)cc1" < 1 µM

// fetch EC50 given entry "COc1ccc(-c2nnc(-c3ccc(C)cc3)o2)cc1" < 1 µM

// fetch EC50 given entry "c1ccc(-c2nnc(-c3ccccc3)o2)cc1" < 1 µM

// fetch EC50 given entry "Clc1ccc(-c2nnc(-c3ccccc3)o2)cc1" < 1 µM

// fetch EC50 given entry "COc1ccc(-c2nnc(-c3ccccc3)o2)c([N+](=O)[O-])c1" < 1 µM

// fetch EC50 given entry "Cc1ccc(-c2nnc(-c3scnc3C)s2)cc1" < 1 µM

// fetch EC50 given entry "COc1cccc(-c2nnc(-c3ccccc3)s2)c1[N+](=O)[O-]" < 1 µM

// fetch EC50 given entry "O=[N+]([O-])c1c(Cl)cccc1-c1nnc(-c2ccccc2)o1" 1 to 5 µM

// fetch EC50 given entry "Cc1cccc(-c2nnc(-c3ccccc3Cl)s2)c1" > 5 µM

// fetch EC50 given entry "CC(C)(C)c1ccc(-c2nnc(-c3ccccc3N)o2)cc1" < 1 µM

// fetch EC50 given entry "COc1ccc(-c2nnc(-c3cccc(C(F)(F)F)c3)o2)cc1" 1 to 5 µM

// fetch EC50 given entry "Cc1ccc(-c2nnc(-c3ccc4ccccc4n3)s2)cc1" > 5 µM

// fetch EC50 given entry "FC(F)(F)c1cccc(-c2nnc(-c3cccnc3Cl)s2)c1" 1 to 5 µM

// fetch EC50 given entry "Oc1ccc(-c2nnc(-c3ccc4ccccc4c3)s2)cc1" < 1 µM

// fetch EC50 given entry "COc1ccccc1-c1nnc(-c2ccccc2)s1" < 1 µM

// fetch EC50 given entry "COc1ccc(-c2nnc(-c3ccc(C(F)(F)F)cc3)s2)cn1" < 1 µM

// fetch EC50 given entry "COc1cccc(-c2nnc(-c3ccc(C)cc3)o2)c1" < 1 µM

// fetch EC50 given entry "O=[N+]([O-])c1ccccc1Cc1nnc(-c2ccc(C(F)(F)F)cc2)o1" < 1 µM

// fetch EC50 given entry "FC(F)(F)c1cccc(-c2nnc(-c3ccnc4ccccc34)o2)c1" < 1 µM

// fetch EC50 given entry "c1ccc(-c2nnc(C34CC5CC(CC(C5)C3)C4)s2)cc1" < 1 µM

// fetch EC50 given entry "COc1ccc(-c2nnc(-c3ccccc3N)o2)cc1" < 1 µM
